The values you see were collected from patent US20030148958A1.

Catalogue of CRF1R Emax % values
biological target: CRF1R; experiment: cell-based or functional assay; note: reference of the scale not given here
Ends that are not written are not given here.
Return type: number; implicit unit %.

>  <binder>
IVLSLDVVIGLLQILLEQARARAAREQATTNARILARV-NH2 [SEQ ID NO 214]

>  <CRF1R Emax % / %>
4

$$$$
>  <binder>
ZGPPISIDLPLELLRKMIEIEKQEKEKQQAANNALLLDTI (C-terminal amide) [SEQ ID NO 235]

>  <CRF1R Emax % / %>
70

$$$$
>  <binder>
ZGPPISIDLPLALLRKMIEIEKQEKEKQQAANNRLLLDTI (C-terminal amide) [SEQ ID NO 308]

>  <CRF1R Emax % / %>
100

$$$$
>  <binder>
NDDPPISIDLPLFLLRNMIEMARIENEREQAGLNAKYLAEV-NH2 [SEQ ID NO 257]

>  <CRF1R Emax % / %>
83.5

$$$$

Let's switch to this binder now.
Hello, please tell me recorded CRF1R Emax % for this one: ZGPPISIDLPQYLLRKMIEIEKQEKEKQQAANNALLLDTI (C-terminal amide) [SEQ ID NO 224]
27
